target: UniProtKB P04629; experiment: Isolated TRK enzyme assay (HTRF KinEASE-TK), PV3144 TrkA enzyme assay; settings: arithmetic mean where more than one reading
propertyName: pIC50
Numbers only, as −log10 of the molar value.

As a guide, the following entries are already answered.
INSERT INTO measurements (molecule, reading) VALUES
  ('CC(C)(CO)n1cc(C(=O)c2cncc(NC(=O)Cc3ccc(C(F)(F)F)cc3)c2)c2cnccc21', 8.51),
  ('Cc1nc(CC(=O)Nc2cc(C(=O)c3cn(C(C)C)c4ccncc34)ccn2)c(C)o1', 6.79),
  ('CC(C)n1cc(C(=O)c2cncc(NC(=O)Cc3ccc(F)cc3)c2)c2cnccc21', 7.38),
  ('CC(C)c1cn(CC(=O)Nc2cncc(C(=O)c3cn(C(C)(C)CO)c4ccncc34)c2)nn1', 8.00),
  ('COc1ncc(C(=O)c2cn(C(C)C)c3ccncc23)cc1NC(=O)Cc1ccc(C#N)cc1', 6.73);

List the reported pIC50 of each molecule below.
1. CC(C)n1cc(C(=O)c2ccnc(NC(=O)Cc3ccc(F)cc3F)c2)c2cnccc21
2. Cc1cc(C)n(CC(=O)Nc2cc(C(=O)c3cn(C(C)C)c4ccncc34)ccn2)n1
3. CC(C)n1cc(C(=O)c2cncc(NC(=O)Cc3cccc(Cl)c3)c2)c2cnccc21 [Example 125]

OUTPUT:
[7.75, 7.48, 6.15]

INPUT: # input molecule: CC(C)n1cc(C(=O)c2ccnc(NC(=O)Cc3cccc(Cl)c3)c2)c2cnccc21 ; wanted: its pIC50
OUTPUT: 7.86

* * *

molecular target: TRKA (Homo sapiens (Human), UniProt P04629); test: Isolated TRK enzyme assay (HTRF KinEASE-TK), PV3144 TrkA enzyme assay; conditions: arithmetic mean where more than one reading
Sequence (P04629 441-796): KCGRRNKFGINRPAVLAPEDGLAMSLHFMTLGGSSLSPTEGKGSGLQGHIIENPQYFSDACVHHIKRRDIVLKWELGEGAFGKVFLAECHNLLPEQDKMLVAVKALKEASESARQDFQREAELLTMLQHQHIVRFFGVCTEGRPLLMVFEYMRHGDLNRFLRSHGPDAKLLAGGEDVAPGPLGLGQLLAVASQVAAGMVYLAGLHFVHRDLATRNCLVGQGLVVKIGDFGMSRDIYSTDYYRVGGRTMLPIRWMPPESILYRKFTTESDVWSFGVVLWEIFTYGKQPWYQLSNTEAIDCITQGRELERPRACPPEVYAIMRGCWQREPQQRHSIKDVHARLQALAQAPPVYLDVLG
propertyName: pIC50
One number for each entry, as −log10 of the molar value.

As a guide, the following entries are already answered.
INSERT INTO measurements (molecule, reading) VALUES
  ('CC(C)n1cc(C(=O)c2cc(NC(=O)Cn3cc(C(F)(F)F)nn3)ccn2)c2cnccc21', 6.96),
  ('CC(CO)n1cc(C(=O)c2cncc(NC(=O)Cc3ccc(Cl)cn3)c2)c2cnccc21 (single isomer, unassigned) [Example 73]', 7.05),
  ('CC(C)n1cc(CC(=O)Nc2cncc(C(=O)c3cn(C(C)C)c4ccncc34)c2)c(C(F)(F)F)n1', 6.88),
  ('CC(C)n1cc(C(=O)c2ccnc(NC(=O)Cc3cccc(CC(C)(C)O)c3)c2)c2cnccc21', 7.51),
  ('CC(C)n1cc(C(=O)c2cncc(NC(=O)Cc3ncccn3)c2)c2cnccc21', 5.31);

INPUT: # input molecule: CC(C)c1ccnn1CC(=O)Nc1cc(C(=O)c2cn(CCO)c3ccncc23)ccn1 ; wanted: its pIC50
OUTPUT: 5.37

Sourced from patent US9163021B2
